Hey, just so you know, these numbers are from ChEMBL document CHEMBL5223068.

test system: Klebsiella pneumoniae; test: Antibacterial activity against clinical isolate Klebsiella pneumoniae incubated for 18 to 24 hrs by broth microdilution assay; type: functional; details: time 18-24 hrs
Quantity measured: MIC

# count of solved cases: 5
CC1=C(C(=O)O)N2C(=O)[C@@H](NC(=O)[C@H](N)c3ccccc3)[C@H]2SC1 [CEPHALEXIN ANHYDROUS] | > 250 µg/mL
CCOC(=O)CC1C(=O)NC(=S)NC1=O | 31.2 µg/mL
CCOC(=O)/C(=C\N(C)C)C1C(=O)NC(=S)NC1=O | 62.5 µg/mL
NC(=O)NNC(=O)CC1C(=O)NC(=S)NC1=O | 62.5 µg/mL
O=C(CC1C(=O)NC(=S)NC1=O)NCCNC(=O)CC1C(=O)NC(=S)NC1=O | 62.5 µg/mL

Moving on to the next compound.
Incoming: Hi! What's the reported MIC for O=C1NC(=S)NC(=O)C1CC(=O)N1CCOCC1 on Klebsiella pneumoniae?
Outgoing: 62.5 µg/mL

====

assay: Inhibition of urease (unknown origin) incubated for 30 mins by microplate reader based analysis
Entries and their IC50
Please state the value followed by its unit.

# count of solved cases: 3
O=C(CC1C(=O)NC(=S)NC1=O)NCCNC(=O)CC1C(=O)NC(=S)NC1=O | 29.8 µM
CCOC(=O)/C(=C\N(C)C)C1C(=O)NC(=S)NC1=O | 13.6 µM
NC(N)=S [THIOUREA] | 20 µM

Moving on to the next molecule.
Incoming: Give the measured IC50 of Cc1cccc(NC(=O)CC2C(=O)NC(=S)NC2=O)c1C .
Outgoing: 71 µM

====

test system: Proteus vulgaris; assay: Antibacterial activity against Proteus vulgaris ATCC 13315 incubated for 18 to 24 hrs by broth microdilution assay; assay type: functional; conditions: time 18-24 hrs
Entries and their MIC
Please state the value followed by its unit.

O=C1NC(=S)NC(=O)C1CC(=O)N1CCOCC1 | 62.5 µg/mL
CCOC(=O)CC1C(=O)NC(=S)NC1=O | 31.2 µg/mL
CC1=C(C(=O)O)N2C(=O)[C@@H](NC(=O)[C@H](N)c3ccccc3)[C@H]2SC1 [CEPHALEXIN ANHYDROUS] | 125 µg/mL

Incoming: Give the measured MIC of NC(=O)NNC(=O)CC1C(=O)NC(=S)NC1=O .
Outgoing: 16 µg/mL

====

Entries and their IC50
assay: Inhibition of urease (unknown origin) incubated for 30 mins by microplate reader based analysis
Supply the numeric figure in µM, leaving out any unit text.

O=C1NC(=S)NC(=O)C1CC(=O)N1CCOCC1 | 8.21
CC(C)CNC(=O)CC1C(=O)NC(=S)NC1=O | 16.9
NNC(=O)CC1C(=O)NC(=S)NC1=O | 60.3

Moving on to the next compound.
Incoming: Give the measured IC50 of O=C(CC1C(=O)NC(=S)NC1=O)Nc1ccc(F)cc1 .
Outgoing: 44.3
